# Measured On: NS3/NS4 complexes (Hepatitis C virus genotype 1a, UniProt P27958)
# Sequence (P27958 1027-1657): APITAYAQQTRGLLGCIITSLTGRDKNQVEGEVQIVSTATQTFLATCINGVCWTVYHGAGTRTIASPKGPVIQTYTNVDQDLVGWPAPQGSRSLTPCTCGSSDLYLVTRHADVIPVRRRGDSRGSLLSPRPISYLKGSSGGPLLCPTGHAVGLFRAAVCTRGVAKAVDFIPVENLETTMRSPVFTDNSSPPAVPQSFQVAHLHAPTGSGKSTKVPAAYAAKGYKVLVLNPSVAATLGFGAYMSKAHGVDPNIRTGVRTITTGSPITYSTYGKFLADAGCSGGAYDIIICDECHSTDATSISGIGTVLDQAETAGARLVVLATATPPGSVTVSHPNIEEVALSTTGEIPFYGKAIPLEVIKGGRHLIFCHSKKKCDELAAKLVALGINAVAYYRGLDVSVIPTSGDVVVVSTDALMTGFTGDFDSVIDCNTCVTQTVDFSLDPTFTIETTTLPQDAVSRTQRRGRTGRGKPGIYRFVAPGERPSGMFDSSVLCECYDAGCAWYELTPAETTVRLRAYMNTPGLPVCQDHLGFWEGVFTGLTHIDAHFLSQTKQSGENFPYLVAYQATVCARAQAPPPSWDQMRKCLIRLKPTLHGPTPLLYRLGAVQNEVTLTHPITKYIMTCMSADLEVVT
# Sequence (P27958 1658-1711): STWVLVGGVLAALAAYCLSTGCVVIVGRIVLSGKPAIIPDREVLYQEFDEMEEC
# Procedure Details: NS3/NS4 inhibition activity (IC50)
# Type: biochemical
# Test Parameters: IC50, Table 3
# Text: NS3-NS4 inhibition activity can be determined using known assay methods. For example, NS3/NS4 complexes may be formed and inhibitory concentrations of test compounds determined as described in U.S. Patent Application Publication Number 2007/0054842 paragraph numbers 1497-1509, which is incorporated herein by reference in its entirety. […]
pIC50: −log10 of the molar value.
Parameter Measured: pIC50

Here's what some known entries look like.
- Molecule: "CN(C)S(=O)(=O)NC(=O)[C@@]12C[C@H]1/C=C\\CCCCC[C@H](NC(=O)OC(C)(C)C)C(=O)N1C[C@H](Oc3nc4ccccc4n3COCC[Si](C)(C)C)C[C@H]1C(=O)N2 [Compound 1143]"
  pIC50: "> 8.00"
- Molecule: "CC(=O)O[C@@H]1C[C@H]2C(=O)N[C@]3(C(=O)NCC(=O)NCc4ccccc4)C[C@H]3/C=C\\CCCCC[C@H](NC(=O)OC(C)(C)C)C(=O)N2C1 [Compound 1060]"
  pIC50: "< 7.00"
- Molecule: "CC(=O)O[C@@H]1C[C@H]2C(=O)N[C@]3(C(=O)N4CCC[C@@H]4C(=O)NCc4ccccc4)C[C@H]3/C=C\\CCCCC[C@H](NC(=O)OC(C)(C)C)C(=O)N2C1 [Compound 1088]"
  pIC50: "< 7.00"
- Molecule: "CO[C@@H]1C[C@H]2C(=O)N[C@]3(C(=O)N4CCC[C@H]4C(=O)NCc4ccccc4)C[C@H]3/C=C\\CCCCC[C@H](NC(=O)OC(C)(C)C)C(=O)N2C1 [Compound 1064]"
  pIC50: "< 7.00"
- Molecule: "CC(C)(C)OC(=O)N[C@H]1CCCCC/C=C\\[C@@H]2C[C@@]2(C(=O)N2CCC[C@H]2C(=O)NCc2ccccc2)NC(=O)[C@@H]2C[C@@H](OC(=O)N3Cc4cccc(F)c4C3)CN2C1=O [Compound 1054]"
  pIC50: "< 7.00"
- Molecule: "CO[C@@H]1C[C@H]2C(=O)N[C@]3(C(=O)NCC(=O)NCc4ccccc4)C[C@H]3/C=C\\CCCCC[C@H](NC(=O)OC(C)(C)C)C(=O)N2C1 [Compound 1063]"
  pIC50: "< 7.00"
- Molecule: "CC(C)(C)OC(=O)N[C@H]1CCCCC/C=C\\[C@@H]2C[C@@]2(C(=O)NS(=O)(=O)C2(C)CC2)NC(=O)[C@@H]2C[C@@H](Oc3nc4ccccc4n3COCC[Si](C)(C)C)CN2C1=O [Compound 701]"
  pIC50: "> 8.00"
- Molecule: "CN(C)C(=O)O[C@@H]1C[C@H]2C(=O)N[C@]3(C(=O)NCC(=O)NCc4ccccc4)C[C@H]3/C=C\\CCCCC[C@H](NC(=O)OC(C)(C)C)C(=O)N2C1 [Compound 1066]"
  pIC50: "< 7.00"
- Molecule: "CC(C)(C)OC(=O)N[C@H]1CCCCC/C=C\\[C@@H]2C[C@@]2(C(=O)N2CCC[C@@H]2C(=O)NCc2ccccc2)NC(=O)[C@@H]2C[C@@H](O)CN2C1=O [Compound 1087]"
  pIC50: "< 7.00"

Proceed to the following item.
Reported pIC50 ( CC(C)(C)OC(=O)N[C@H]1CCCCC/C=C\[C@@H]2C[C@@]2(C(=O)NCC(=O)NCc2ccccc2)NC(=O)[C@@H]2C[C@@H](O)CN2C1=O [Compound 1055] ) = < 7.00
